# test-details: Lipid nanoparticle size and polydispersity by dynamic light scattering
# Format: physicochemical
# condition-info: LNP of lipid/DSPC/cholesterol/PEG-lipid 50:10:38.5:1.5 encapsulating hEPO mRNA
measured-quantity: size (nm)

-- ask Entry CCCCCCCCC(CCCCCCCC)COC(=O)/C=C/CN(CCO)CCN(CCCCCC(=O)OCC(CCCCCCCC)CCCCCCCC)C1CCC1 has what size (nm)?
-- reply 87.84

P = CCCCCCCCC(CCCCCC)COC(=O)CCCCCN(CC=C(C)C)CCN(CCO)CCCCC(COC(=O)CCCCCCC)COC(=O)CCCCCCC (centres unmarked)
Q = CCCCCCCCCCCOC(=O)CCCCCN(CCN(CCO)CCCCCNP(=O)(OCCCCCCCCC)OCCCCCCCCC)C1CCCCC1
-- ask Recorded size (nm) values differ for P and Q ; which one is higher? In your reply, give the label of the chosen option.
-- reply Q

A = CCCCCCCCC(CCCCCCCC)COC(=O)CCCCCN1CCC(N(CCO)CCCCCC(=O)OCC(CCCCCCCC)CCCCCCCC)CC1
B = CCCCCCCCC(CCCCCCCC)CC(=O)NCCCCCN(CCN(CCO)CCCCCCOC(=O)C(CCCCCC)CCCCCCCC)C1CCC1 (centres unmarked)
-- ask Please compare: A and B . Report which one has the smaller size (nm) value. In your reply, give the label of the chosen option.
-- reply A
